# Measured target: recombinant human PKM2 (Homo sapiens, UniProt P14618)
# Construct: His (N); purchased R&D Systems
# Sequence (P14618 2-531 limits assumed): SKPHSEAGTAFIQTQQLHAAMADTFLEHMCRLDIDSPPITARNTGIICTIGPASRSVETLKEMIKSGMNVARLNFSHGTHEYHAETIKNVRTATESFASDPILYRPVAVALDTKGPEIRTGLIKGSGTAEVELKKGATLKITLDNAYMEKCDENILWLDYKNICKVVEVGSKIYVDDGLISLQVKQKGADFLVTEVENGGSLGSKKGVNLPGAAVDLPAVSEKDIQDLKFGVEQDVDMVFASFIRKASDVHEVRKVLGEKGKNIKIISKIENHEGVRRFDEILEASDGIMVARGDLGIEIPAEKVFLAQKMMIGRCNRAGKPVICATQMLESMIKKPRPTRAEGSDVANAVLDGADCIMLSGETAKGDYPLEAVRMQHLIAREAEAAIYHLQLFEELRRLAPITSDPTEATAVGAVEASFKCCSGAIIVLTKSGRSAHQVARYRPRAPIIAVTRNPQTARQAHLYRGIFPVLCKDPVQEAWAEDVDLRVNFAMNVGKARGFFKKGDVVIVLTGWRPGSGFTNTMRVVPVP
# Protocol description: Human PKM2 activation assay (Kinase-Glo Plus luminescent detection of generated ATP)
# Format: biochemical
# Protocol conditions: percentage activation normalised to DMSO vehicle (LOW) and 5 μM TEPP-46 (HIGH); read-out: hPKM2 Emax
Measured quantity: Emax (%)

Cn1cc(Cl)c(Cn2ncc3cc(S(=O)(=O)c4cn[nH]c4)ccc3c2=O)n1; 95.5
O=c1c2ccc(S(=O)(=O)c3ccc4sccc4c3)cc2cnn1Cc1cc[nH]n1; 115
O=c1c2ccc(S(=O)(=O)c3cn[nH]c3)cc2cnn1Cc1ccc2occc2n1; 108
C[C@@H]1Cc2cc(S(=O)(=O)c3ccc4c(=O)n(Cc5ccn(C)n5)ncc4c3)ccc2O1; 115
O=c1c2ccc(S(=O)(=O)c3ccccc3)cc2cnn1Cc1ccc2c(c1)OCO2; 109
Cc1cccc(Cn2ncc3cc(S(=O)(=O)c4cnn(C5COC5)c4)ccc3c2=O)n1; 103
COc1ccc(S(=O)(=O)c2ccc3c(=O)n(Cc4ccn(C)n4)ncc3c2)cc1; 103
Cn1ccc(Cn2ncc3cc(S(=O)(=O)c4ccccc4)cc(F)c3c2=O)n1; 103
COC(C)c1nc(S(=O)(=O)c2ccc3c(=O)n(Cc4ccc5c(n4)CCO5)ncc3c2)cs1 (stereo not drawn); 94.9
Cc1nc(Cn2ncc3cc(S(=O)(=O)c4cc[nH]n4)ccc3c2=O)ccc1F; 118
COc1ccc(S(=O)(=O)c2ccc3c(=O)n(Cc4ccc(OC)nc4)ncc3c2)nc1; 84.1
COc1ccc(Cn2ncc3cc(S(=O)(=O)c4ccc5c(c4)CCO5)ccc3c2=O)cn1; 95.3
COc1ccc(S(=O)(=O)c2ccc3c(=O)n(Cc4cccc(OC)c4F)ncc3c2)cc1; 101
Cc1cccc(Cn2ncc3cc(S(=O)(=O)c4cc[nH]n4)ccc3c2=O)n1; 106
COc1ccc(S(=O)(=O)c2ccc3c(=O)n(Cc4cccnc4O)ncc3c2)cc1; 98
Nc1cccc(Cn2ncc3cc([S+]([O-])c4ccccc4)ccc3c2=O)c1 (stereo not drawn); 98.8
COc1ccc(S(=O)(=O)c2ccc3c(=O)n(Cc4ccccc4)ncc3c2)cc1; 97.5
O=c1c2ccc(S(=O)(=O)c3cnn(CCO)c3)cc2cnn1Cc1cccc(C2CC2)n1; 94.6
COc1cccc(S(=O)(=O)c2ccc3c(=O)n(Cc4ccc(OC)nc4)ncc3c2)c1; 96.1
Cn1cc(S(=O)(=O)c2ccc3c(=O)n(Cc4cccnc4O)ncc3c2)cn1; 80.2
O=c1c2ccc(S(=O)(=O)c3ccccc3)c(NCCO)c2cnn1Cc1cccnc1O; 103
COc1ccc(S(=O)(=O)c2ccc3c(=O)n(Cc4cccc(N)c4)ncc3c2)cn1; 100
Nc1cccc(Cn2ncc3cc(S(=O)(=O)c4ccccc4)ccc3c2=O)n1; 115
O=c1c2ccc(S(=O)(=O)c3cn[nH]c3)cc2cnn1Cc1ccc2c(n1)CCO2; 104
O=c1c2ccc(S(=O)(=O)c3ccccc3)cc2cnn1Cc1cc[nH]n1; 117
O=c1c2ccc(S(=O)(=O)c3cnn(C4CC4)c3)cc2cnn1Cc1cccnc1O; 84.9
Cc1cc(F)c(Cn2ncc3cc(S(=O)(=O)c4cn[nH]c4)ccc3c2=O)nc1C; 100
COC(C)c1nc(S(=O)(=O)c2ccc3c(=O)n(Cc4cc[nH]n4)ncc3c2)cs1 (stereo not drawn); 103
Cc1cc(Cn2ncc3cc(S(=O)(=O)c4cnn(C)c4)ncc3c2=O)n[nH]1; 93.3
COc1ccc(Cn2ncc3cc(S(=O)(=O)c4cccc5sc(C)nc45)ccc3c2=O)cn1; 95.8
COc1ccc(Cn2ncc3cc(S(=O)(=O)c4cccc(OC)n4)ccc3c2=O)cn1; 83.3
COc1ccc(Cn2ncc3cc([S@](=N)(=O)c4ccccc4)ccc3c2=O)cn1 (single isomer, unassigned); 95.1
Nc1cccc(Cn2ncc3cc(S(=O)(=O)c4cccc5cccnc45)ccc3c2=O)c1; 97.1
